Hello, the source for this data is ChEMBL document CHEMBL1139591, in case you need it.

System: Enterococcus faecium
Experiment: Minimum inhibitory concentration against Enterococcus faecium A24885
Assay type: functional
measuredMetric: MIC (µg/mL)
Hi! Could you send only the number? It should be in µg/mL, unit omitted.

CC(=O)NC[C@H]1CN(c2ccc(N=O)cc2)C(=O)O1: 2
CC(=O)NC[C@H]1CN(c2ccc(N3CCCN3C(C)=O)c(F)c2)C(=O)O1: 32
CC(=O)NC[C@H]1CN(c2ccc(N3CCOCC3)c(F)c2)C(=O)O1: 2
CC(=O)NC[C@H]1CN(c2ccc(N3CCC=N3)c(F)c2)C(=O)O1: 4
CC(=O)NC[C@H]1CN(c2ccc(N3CCN(C(=O)CO)CC3)c(F)c2)C(=O)O1: 2

With those in mind, consider the next compound.
// MIC value for `CC(=O)NC[C@H]1CN(c2ccc(N)cc2)C(=O)O1` : 128

----------
Tested on: Enterococcus faecium
Assay: Minimum inhibitory concentration against Enterococcus faecium A24885
Assay type: functional
Mark y for MIC under 8 mg/L, n if at or over.

CC(=O)NC[C@H]1CN(c2ccc([N+](=O)[O-])c(F)c2)C(=O)O1: n

Task: Lab log: compare recorded MIC with 8 mg/L; is it strictly lower for `CC(=O)NC[C@H]1CN(c2ccc([N+](=O)[O-])cc2)C(=O)O1` ?
Output: y

----------
System: Enterococcus faecium
Experiment: Minimum inhibitory concentration against Enterococcus faecium A24885
Assay type: functional
# note: boundary value 20 µg/mL maps to F; MIC below it maps to T

CC(=O)NC[C@H]1CN(c2ccc(N3CCCCN3C(C)=O)c(F)c2)C(=O)O1: F
CC(=O)NC[C@H]1CN(c2ccc(N3CC=CCO3)cc2)C(=O)O1: T
CC(=O)NC[C@H]1CN(c2ccc(N3CC(C)=C(C)CO3)cc2)C(=O)O1: T
CC(=O)NC[C@H]1CN(c2ccc(NO)cc2)C(=O)O1: T

Switching to the query record.
Task: # TODO verify MIC < 20 µg/mL strictly for this molecule: CC(=O)NC[C@H]1CN(c2ccc(N3OC4C=CC3CC4)cc2)C(=O)O1 (stereo not given in full)
Output: T
